The measured values listed here are drawn from patent US6750224B1.

- Tested on: S.aureus strain bearing Nor A efflux pump
- Assay type: cell-based
- conditions.used: Nor A efflux pump strain vs strain devoid of efflux pump
experimental.readout: % loss in potency for S. aureus bearing Efflux pump (%)
Kindly provide the numeric value in % only, without the unit symbol.

compound	reported.value
CCn1cc(C(=O)O)c(=O)c2cc(F)c(N3CCNCC3)cc21 [Norfloxacin]	97
COc1c(N2CCNC(C)C2)c(F)cc2c(=O)c(C(=O)O)cn(C3CC3)c12 (centres unmarked) [Gatifloxacin]	75
C[C@H]1CCc2c(N3CCC(O)CC3)c(F)cc3c(=O)c(C(=O)O)cn1c23 [S-(−)-Nadifloxacin]	0

Enquiry: Which % loss in potency for S. aureus bearing Efflux pump value is on record for NC1CCN(c2c(F)cc3c(=O)c(C(=O)O)cn(C4CC4)c3c2Cl)C1 (centres unmarked) [Clinafloxacin] ?
Return: 87.5

Enquiry: Returns the measured % loss in potency for S. aureus bearing Efflux pump for the input compound. Input: CO/N=C1\CN(c2nc3c(cc2F)c(=O)c(C(=O)O)cn3C2CC2)CC1CN (centres unmarked) [Gemifloxacin]
Return: 75
